Tested on: A549 (Lung Adenocarcinoma)
assay-method-text: combination Emax (second highest fraction inhibited in the dose matrix, 72 h); higher = more inhibition; extreme values may be limits of the assay
Measured combination Emax, listed per entry for reference.
Number, no unit, nothing else.

molecule	observed
COc1nnc2ccc(N3CCC(c4ccc(OCCN5CCN(C)C(=O)[C@H]5C)cc4)CC3)nn12 [AZD5153] + CCN(CCO)CCCOc1ccc2c(Nc3cc(CC(=O)Nc4cccc(F)c4)[nH]n3)ncnc2c1 [AZD2811] (first compound max 1 µM, 7x7, partner max 1 µM)	0.834
Cc1c2c(nn1C)CSCc1cc(n(C)n1)CSc1cc(c3ccccc3c1)OCCCc1c(C(=O)O)n(C)c3c-2c(Cl)ccc13 [AZD5991] + CC1(C)CCC(CN2CCN(c3ccc(C(=O)NS(=O)(=O)c4ccc(NCC5CCOCC5)c([N+](=O)[O-])c4)c(Oc4cnc5[nH]ccc5c4)c3)CC2)=C(c2ccc(Cl)cc2)C1 [Venetoclax] (first compound max 1 µM, 7x7, partner max 1 µM)	0.216

Read the next record carefully.
# return recorded combination Emax for entry CN(CCO)CC[C@H](CSc1ccccc1)Nc1ccc(S(=O)(=O)NC(=O)c2ccc(N3CCC([C@@H](O)c4ccccc4-c4ccc(Cl)cc4)CC3)cc2)cc1S(=O)(=O)C(F)(F)F [AZD4320] + Cc1cc2ncnn2cc1Nc1ncc2c(n1)n(C1CCOCC1)c(=O)n2C [AZD7648] (first compound max 1 µM, 7x7, partner max 10 µM)
0.369

Values compiled from the supplement of paper PMC11061612.
